The reported measurements were obtained from ChEMBL document CHEMBL1154375.

- Test system: PC-12
- experiment: Neuroprotective activity in rat PC12 cells assessed as inhibition of serum deprivation-induced apoptosis at 100 nM after 24 hrs by APO Percentage apoptosis assay
- Assay type: functional, cell-based
Active and inactive are the calls of the source. The rule behind the calls is not given here.
measuredQuantity: inhibition

Study these solved cases before continuing.
CCCC[C@@]1(O)CC[C@@]2(C)C(=CC[C@@H]3[C@@H]2CC[C@]2(C)C(=O)CC[C@@H]32)C1 = inactive
C[C@]12CC[C@@](O)(CN=[N+]=[N-])CC1=CC[C@@H]1[C@@H]2CC[C@]2(C)C(=O)CC[C@@H]12 = inactive
C[C@]1(O)CC[C@@]2(C)C(=CC[C@@H]3[C@@H]2CC[C@]2(C)C(=O)CC[C@@H]32)C1 = inactive
CO[C@H]1CC[C@H]2[C@@H]3CC=C4C[C@@H](O)CC[C@]4(C)[C@H]3CC[C@]12C = inactive
C[C@]12CC[C@@](O)(CC#N)CC1=CC[C@@H]1[C@@H]2CC[C@]2(C)C(=O)CC[C@@H]12 = inactive

Challenge: Find the measured inhibition: item `C[C@@]1(O)CC[C@@]2(C)C(=CC[C@@H]3[C@@H]2CC[C@]2(C)C(=O)CC[C@@H]32)C1` , target or system PC-12.
Response given: inactive

Challenge: Find the measured inhibition: item `COC[C@]1(O)CC[C@@]2(C)C(=CC[C@@H]3[C@@H]2CC[C@]2(C)C(=O)CC[C@@H]32)C1` , target or system PC-12.
Response given: inactive
